assay method text: MRP1 drug-resistance reversers in H69AR cells – cell-based, doxorubicin co-treatment, pilot screen (AID 601)
condition label: H69AR cells + 2 uM doxorubicin, CellTiter-Glo, 72 h; measured here: viability with 2 uM doxorubicin; at 10 µM; stronger effect = lower value
viability values for the molecules below.
Reply with just the number (in %).

Solved cases (3 shown):
{"columns": ["molecule", "viability / %"],
 "data": [
  ["CCOC(=O)N1CCN(C(=O)c2ccc3nc4ccsc4c(=O)n3c2)CC1", 90.8],
  ["CCOC(=O)c1ccc(N=c2sc(C(=O)OC)cc(=O)n2Cc2ccco2)cc1", 1.24],
  ["CC(=O)C1=C(N2CCCCC2)CCC1=O", 86.8]
]}

*Q* # return recorded viability for entry `Cc1ccc(C)c(N2C(=O)CN=C2Nc2ccccc2Cl)c1`
*A* 78.6

*Q* # return recorded viability for entry `O=C(NC(=O)c1cccc(F)c1)OC[C@@H]1CCCN2CCCC[C@H]12`
*A* 95.9

*Q* # return recorded viability for entry `Cn1c(C(=O)NCCCN2CCCCCC2)cc2c(=O)n(C)c3ccccc3c21`
*A* 75.1

*Q* # return recorded viability for entry COC(=O)C(C)Sc1nc2c(c(=O)n1-c1ccccc1)SCC2 (configuration not stated)
*A* 107

*Q* # return recorded viability for entry `CC(C)=CC(=O)OCC(=O)NC(=O)NC(C)(C)C`
*A* 101

*Q* # return recorded viability for entry Cc1ccc(N2C(=O)c3oc4ccccc4c(=O)c3C2c2cccc(O)c2)nc1 (configuration not stated)
*A* 103

*Q* # return recorded viability for entry `CCOc1ccc(NC(=O)CN(c2cc(C)cc(C)c2)S(=O)(=O)c2c(C)noc2C)cc1`
*A* 74.2

*Q* # return recorded viability for entry `CNC(=O)c1ccsc1NC(=O)CN1C(=O)CCC1=O`
*A* 80.5
